# test-protocol: Oral bioavailability in Sprague-Dawley rat plasma at 5 mg/kg
# Assay type: ADME, organism-based
endpoint: bioavailability (%)
# value in %; strip the unit string

input: I'd like to know its bioavailability. The compound in question is "Cc1nnc([C@H]2CCCN2C(=O)Nc2ccc(C(F)(F)F)cc2)n1Cc1ccc(Cl)cc1"
output: 26

* * *

# test-protocol: AUC (0 to infinity) in Sprague-Dawley rat at 5 mg/kg, po
# Format: ADME, organism-based, Plasma
# Parameters: time infinity, dose 5 mg/kg, route oral
# condition-info: Sprague-Dawley, plasma
Recorded AUC(0-inf) values for a group of compounds are listed next.
Could you give me the number in ng·h/mL? Just the number is fine.

{"compound": "O=C(Nc1ccc(C(F)(F)F)cc1)N1CCC[C@@H]1c1ncnn1Cc1ccc(Cl)cc1", "AUC(0-inf), ng·h/mL": 4460}
{"compound": "O=C(Nc1ccc(C(F)(F)F)cc1)N1CCC[C@@H]1c1nncn1Cc1ccc(Cl)cc1", "AUC(0-inf), ng·h/mL": 657}

Here is another compound to look at.
input: Could you tell me which AUC(0-inf) is on file for O=C(Nc1ccc(C(F)(F)F)cc1)N1CCCC1c1nccn1Cc1ccc(Cl)cc1 (stereo not drawn) ?
output: 100

* * *

# test-protocol: Half life in Sprague-Dawley rat plasma at 5 mg/kg, po
# Assay type: ADME, organism-based
# Design: dose 5 mg/kg, route oral
endpoint: half-life (h)
Output spec: scalar in h, unitless text.

input: I'd like to know its half-life. The molecule in question is "Cc1nnc([C@H]2CCCN2C(=O)Nc2ccc(C(F)(F)F)cc2)n1Cc1ccc(Cl)cc1"
output: 3.8

* * *

# test-protocol: Metabolic stability in rat liver microsomes assessed as compound remaining at 1 uM after 30 mins
# Assay type: ADME, Microsome
# condition-info: read-out: Stability
Reported remaining at 0.5 h, 1 µM is given for each of the following compounds.
Kindly provide the numeric value in % only, without the unit symbol.

{"compound": "O=C(Nc1ccc(C(F)(F)F)cc1)N1CCC[C@@H]1c1ncnn1Cc1ccc(Cl)cc1", "value-measured": 81}

input: If you can, please state the reported remaining at 0.5 h, 1 µM value of "O=C(Nc1ccc(C(F)(F)F)cc1)N1CCC[C@@H]1c1nncn1Cc1ccc(Cl)cc1" .
output: 41

input: Would you mind telling me what remaining at 0.5 h, 1 µM value was observed for "O=C(Nc1ccc(C(F)(F)F)cc1)N1CCC[C@@H]1c1nnnn1Cc1ccc(Cl)cc1" ?
output: 25

input: Name the recorded remaining at 0.5 h, 1 µM for O=C(Nc1ccc(C(F)(F)F)cc1)N1CCCC1c1nccn1Cc1ccc(Cl)cc1 (stereo not given) .
output: 55

input: Please give the measured remaining at 0.5 h, 1 µM for this compound: "Cc1nnc([C@H]2CCCN2C(=O)Nc2ccc(C(F)(F)F)cc2)n1Cc1ccc(Cl)cc1"
output: 87
